inhibition listing for selected compounds.
- Target: Tyrosine-protein phosphatase non-receptor type 1 (Homo sapiens) (UniProt P18031)
- Sequence (P18031 whole entry): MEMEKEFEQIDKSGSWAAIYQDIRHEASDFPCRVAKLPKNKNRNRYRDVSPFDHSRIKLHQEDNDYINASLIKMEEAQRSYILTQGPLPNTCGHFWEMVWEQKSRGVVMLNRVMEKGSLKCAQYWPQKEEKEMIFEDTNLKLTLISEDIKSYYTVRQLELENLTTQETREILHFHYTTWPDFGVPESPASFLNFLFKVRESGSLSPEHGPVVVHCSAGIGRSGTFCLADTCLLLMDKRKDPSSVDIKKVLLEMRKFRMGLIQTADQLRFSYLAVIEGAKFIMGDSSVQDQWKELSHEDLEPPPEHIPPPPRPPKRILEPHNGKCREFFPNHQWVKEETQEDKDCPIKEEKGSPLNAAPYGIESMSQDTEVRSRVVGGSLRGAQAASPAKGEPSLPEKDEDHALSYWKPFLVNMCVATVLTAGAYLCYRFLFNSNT
- Assay info: Inhibition of recombinant human GST-tagged PTP1B expressed in expressed in Escherichia coli BL21 cells at 10 uM pre-incubated for 5 mins before pNPP substrate addition and further incubated for 30 mins relative to untreated control
Report field: quantity (unit follows the number).

Some solved entries appear below for comparison.
                               smiles_entry  result_type  reported_measurement
0  C=C(C)[C@H]1CC[C@@](C)(O)[C@@H]1/C=C/C(C)=C/[C@@H]1C[C@@]2([C@H](OCC)O1)[C@H](CCCO)/C(=C(\C)C=O)CC[C@]2(C)O   inhibition                 32.9%
1  C=C(C)[C@@H]1CC[C@](C)(O)[C@H]1/C=C/C(C)=C/[C@@H]1C[C@@]2([C@H](OC)O1)[C@H](CCCO)/C(=C(/C)C=O)CC[C@]2(C)O   inhibition                 23.5%
2  C=C(C)[C@H]1CC[C@@](C)(O)[C@@H]1/C=C/C(C)=C/[C@@H]1C[C@@]23[C@H](OCCC[C@@H]2/C(=C(\C)C=O)CC[C@]3(C)O)O1   inhibition                 26.4%
3  C=C(C)[C@@H]1CC[C@](C)(O)[C@H]1/C=C/C(C)=C/[C@@H]1C[C@@]23[C@H](OCCC[C@@H]2/C(=C(\C)C=O)CC[C@]3(C)O)O1   inhibition                 33.4%
4  C=C(C)[C@H]1CC[C@@](C)(O)[C@@H]1/C=C/C(C)=C/[C@@H]1C[C@@]2([C@H](OC)O1)[C@H](CCCO)/C(=C(/C)C=O)CC[C@]2(C)O   inhibition                 -0.5%
5  C=C(C)[C@@H]1CC[C@](C)(O)[C@H]1/C=C/C(C)=C/[C@@H]1C[C@@]2([C@H](OC)O1)[C@H](CCCO)/C(=C(\C)C=O)CC[C@]2(C)O   inhibition                 -1.8%

# inhibition (compound: C=C(C)[C@@H]1CC[C@](C)(O)[C@H]1/C=C/C(C)=C/[C@@H]1C[C@@]23[C@H](OCCC[C@@H]2/C(=C(/C)C=O)CC[C@]3(C)O)O1 ) is 16.5%

# inhibition (compound: C=C(C)[C@H]1CC[C@@](C)(O)[C@@H]1/C=C/C(C)=C/[C@@H]1C[C@@]2([C@H](OC)O1)[C@H](CCCO)/C(=C(\C)C=O)CC[C@]2(C)O ) is 15.2%

# inhibition (compound: C=C(C)[C@H]1CC[C@@](C)(O)[C@@H]1/C=C/C(C)=C/[C@@H]1C[C@@]23[C@H](OCCC[C@@H]2/C(=C(/C)C=O)CC[C@]3(C)O)O1 ) is 24.8%
